Reported Emax is given for each of the following compounds.
target-of-assay: human sphingosine-1-phosphate receptor 1 (S1P1) (Homo sapiens (Human))
Sequence (P21453 whole entry, looked up): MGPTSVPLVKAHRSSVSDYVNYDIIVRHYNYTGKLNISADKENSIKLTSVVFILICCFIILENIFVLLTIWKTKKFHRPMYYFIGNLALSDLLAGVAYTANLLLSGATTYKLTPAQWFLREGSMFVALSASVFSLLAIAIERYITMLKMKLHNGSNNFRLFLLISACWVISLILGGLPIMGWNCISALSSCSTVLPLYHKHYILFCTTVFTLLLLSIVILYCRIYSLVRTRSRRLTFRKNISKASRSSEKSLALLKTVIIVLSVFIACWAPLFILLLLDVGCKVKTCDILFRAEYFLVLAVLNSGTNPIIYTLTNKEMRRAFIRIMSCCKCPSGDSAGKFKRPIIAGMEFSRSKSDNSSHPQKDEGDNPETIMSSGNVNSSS
method-summary: Inhibition of cAMP production (HTRF cAMP HiRange), S1P1 CHO-K1 cells
Format: cell-based
assay-context: CHO-K1; efficacy (SPAN) normalized to fingolimod; read-out: hS1P1 cAMP SPAN

Use these answered entries as a reference point.
Report Emax from human sphingosine-1-phosphate receptor 1 (S1P1) (Homo sapiens (Human)) testing of COc1ccc(-c2noc(-c3ccc4c(c3)nnn4C3CCCCC3)n2)cc1C(F)(F)F [Compound 284] < 75%

Report Emax from human sphingosine-1-phosphate receptor 1 (S1P1) (Homo sapiens (Human)) testing of COc1cccc(-c2noc(-c3ccc4c(c3)nnn4C3CCCC3)n2)n1 [Compound 124] < 75%

Report Emax from human sphingosine-1-phosphate receptor 1 (S1P1) (Homo sapiens (Human)) testing of Cc1ccccc1-c1noc(-c2ccc3c(c2)nnn3C2CCCC2)n1 [Compound 175] > 75%

Report Emax from human sphingosine-1-phosphate receptor 1 (S1P1) (Homo sapiens (Human)) testing of CC(F)(F)CNc1ccc(-c2nnc(-c3ccc4[nH]cnc4c3)o2)cc1C#N [Compound 520] > 75%

Report Emax from human sphingosine-1-phosphate receptor 1 (S1P1) (Homo sapiens (Human)) testing of CC1(C)CC(=O)c2cc(-c3nc(-c4ccncc4)no3)ccc2O1 [Compound 291] < 75%

Report Emax from human sphingosine-1-phosphate receptor 1 (S1P1) (Homo sapiens (Human)) testing of CC(C)n1nnc2cc(-c3nc(-c4ccc(OCc5ccccc5)c(C(F)(F)F)c4)no3)ccc21 [Compound 296] < 75%

Further cases:
Report Emax from human sphingosine-1-phosphate receptor 1 (S1P1) (Homo sapiens (Human)) testing of CC(C)n1nnc2cc(-c3nc(-c4ccccc4Br)co3)ccc21 [Compound 183] > 75%

Report Emax from human sphingosine-1-phosphate receptor 1 (S1P1) (Homo sapiens (Human)) testing of CCC1(CC)CC(=O)c2cc(-c3nc(-c4ccc(NC)cc4)no3)ccc2O1 [Compound 153] > 75%

* * *

target-of-assay: human sphingosine-1-phosphate receptor 1 (S1P1) (Homo sapiens (Human))
method-summary: Inhibition of cAMP production (HTRF cAMP HiRange), S1P1 CHO-K1 cells
Assay type: cell-based
assay-context: inhibition of cAMP production, S1P1 CHO-K1 cells
Method: Stable clonal Chinese hamster ovary K1 (CHO-K1) cells co-expressing EA-β-arrestin2 and the human sphingosine-1-phosphate receptor 1 (NM_001400, S1P1) with a C-terminal Prolink™ tag were purchased from DiscoverX corporation (Cat #: 93-0207C2). […] Agonist-promoted G-protein responses were determined by measuring changes in intracellular cAMP using the HTRF® cAMP HiRange kit (CisBio, Cat #: 62AM6PEJ) based on time-resolved fluorescence resonance energy transfer (TR-FRET) technology. […]
Reported hS1P1 cAMP pEC50 is given for each of the following molecules.

Look up hS1P1 cAMP pEC50 of COc1ccccc1-c1noc(-c2ccc3c(ccn3C(C)C)c2)n1 and report it. >6.5

Look up hS1P1 cAMP pEC50 of C=CCNc1ccc(-c2nc(-c3ccc4c(c3)CC(=O)N4)no2)cc1C#N and report it. >6.5

Look up hS1P1 cAMP pEC50 of CCC1(CC)CC(=O)c2cc(-c3nc(-c4ccncc4OC)no3)ccc2O1 and report it. >6.5

Look up hS1P1 cAMP pEC50 of COc1ccc(-c2nc(-c3ccc4c(ccn4C(C)C)c3)no2)cc1 and report it. <6.5

Look up hS1P1 cAMP pEC50 of CC(C)Nc1ccc(-c2nc(-c3ccc4c(c3)CCC(=O)N4)no2)cc1C#N and report it. >6.5

Further cases:
Look up hS1P1 cAMP pEC50 of Cc1ccncc1-c1noc(-c2ccc3c(c2)NC(=O)CN3)n1 and report it. <6.5

* * *

Reported hS1P1 cAMP pEC50 is given for each of the following compounds.
target-of-assay: UniProt P21453
method-summary: Inhibition of cAMP production (HTRF cAMP HiRange), S1P1 CHO-K1 cells
Assay type: cell-based
assay-context: inhibition of cAMP production, S1P1 CHO-K1 cells

Use these answered entries as a reference point.
Look up hS1P1 cAMP pEC50 of CCC1(CC)CC(=O)c2cc(-c3nc(-c4ccco4)no3)ccc2O1 [Compound 465] and report it. >6.5

Look up hS1P1 cAMP pEC50 of Cc1ccsc1-c1nc(-c2ccc3c(c2)nnn3CC(C)(C)CO)no1 [Compound 524] and report it. >6.5

Look up hS1P1 cAMP pEC50 of CCC1(CC)CC(=O)c2cc(-c3ncc(-c4ccccc4OC)cn3)ccc2O1 [Compound 594] and report it. >6.5

Look up hS1P1 cAMP pEC50 of CC(C)n1nnc2cc(-c3noc(-c4ccccc4OC(F)(F)F)n3)ccc21 [Compound 240] and report it. <6.5

Look up hS1P1 cAMP pEC50 of CSc1ccc(-c2nc(-c3ccc4c(c3)nnn4C3CCCC3)no2)cc1 [Compound 237] and report it. <6.5

Further cases:
Look up hS1P1 cAMP pEC50 of CC(C)(O)Cn1nnc2cc(-c3nc(-c4ccc5nc[nH]c5c4)no3)ccc21 [Compound 501] and report it. <6.5

Look up hS1P1 cAMP pEC50 of CCC1(CC)CC(=O)c2cc(-c3noc(-c4cccnc4)n3)ccc2O1 [Compound 559] and report it. >6.5

Look up hS1P1 cAMP pEC50 of COc1cccc(-c2nc(-c3ccc4c(c3)nnn4C(C)C)no2)c1 [Compound 299] and report it. <6.5

Look up hS1P1 cAMP pEC50 of CC(C)Oc1ccccc1-c1noc(-c2ccc3c(c2)nnn3C(C)C)n1 [Compound 62] and report it. <6.5

* * *

target-of-assay: UniProt:P21453
method-summary: Inhibition of cAMP production (HTRF cAMP HiRange), S1P1 CHO-K1 cells
Type: cell-based
assay-context: CHO-K1; efficacy (SPAN) normalized to fingolimod; read-out: hS1P1 cAMP SPAN
readout: Emax

Use these answered entries as a reference point.
Look up Emax of CC(C)n1ncc2cc(-c3nc(-c4ccccc4Br)no3)ccc21 [Compound 332] and report it. > 75%

Look up Emax of COc1cccc(F)c1-c1noc(-c2ccc3c(c2)nnn3C(C)C)n1 [Compound 260] and report it. > 75%

Further cases:
Look up Emax of Cc1cccc2oc(-c3ccc4c(c3)nnn4C(C)C)nc12 [Compound 418] and report it. > 75%

Look up Emax of c1ccc(Oc2ccc(-c3noc(-c4ccc5c(c4)nnn5C4CC4)n3)cc2)cc1 [Compound 285] and report it. < 75%

* * *

target-of-assay: human sphingosine-1-phosphate receptor 1 (S1P1) (Homo sapiens (Human))
method-summary: Inhibition of cAMP production (HTRF cAMP HiRange), S1P1 CHO-K1 cells
Type: cell-based
assay-context: CHO-K1; efficacy (SPAN) normalized to fingolimod; read-out: hS1P1 cAMP SPAN
readout: Emax

Report Emax from human sphingosine-1-phosphate receptor 1 (S1P1) (Homo sapiens (Human)) testing of Clc1ncccc1-c1noc(-c2ccc3c(c2)nnn3CC2CC2)n1 < 75%

Report Emax from human sphingosine-1-phosphate receptor 1 (S1P1) (Homo sapiens (Human)) testing of C=CCNc1ccc(-c2nc(-c3ccc4c(c3)CCC(=O)N4)no2)cc1C#N > 75%

Report Emax from human sphingosine-1-phosphate receptor 1 (S1P1) (Homo sapiens (Human)) testing of Cc1ccncc1-c1noc(-c2ccc3c(c2)nnn3C(C)C)n1 > 75%

Report Emax from human sphingosine-1-phosphate receptor 1 (S1P1) (Homo sapiens (Human)) testing of COc1ccccc1-c1nc(-c2ccc3c(c2)nnn3C(C)(C)CO)no1 > 75%

Report Emax from human sphingosine-1-phosphate receptor 1 (S1P1) (Homo sapiens (Human)) testing of O=C(O)Cn1nnc2cc(-c3noc(-c4ccccc4Br)n3)ccc21 < 75%

Further cases:
Report Emax from human sphingosine-1-phosphate receptor 1 (S1P1) (Homo sapiens (Human)) testing of CCc1ccccc1-c1nc(-c2ccc3c(c2)nnn3C(C)(C)CO)no1 < 75%

Report Emax from human sphingosine-1-phosphate receptor 1 (S1P1) (Homo sapiens (Human)) testing of CSc1ccc(-c2nc(-c3ccc4c(c3)nnn4C3CCCC3)no2)cc1 < 75%

Report Emax from human sphingosine-1-phosphate receptor 1 (S1P1) (Homo sapiens (Human)) testing of CC(C)n1nnc2cc(-c3noc(C4CCCCC4)n3)ccc21 < 75%

Report Emax from human sphingosine-1-phosphate receptor 1 (S1P1) (Homo sapiens (Human)) testing of CCC1(CC)CC(=O)c2cc(-c3nc(-c4ccc(Cl)cc4)no3)ccc2O1 < 75%

Report Emax from human sphingosine-1-phosphate receptor 1 (S1P1) (Homo sapiens (Human)) testing of CC(C)n1ncc2cc(-c3nc(-c4cccc5c4OCCC5)no3)ccc21 > 75%

Report Emax from human sphingosine-1-phosphate receptor 1 (S1P1) (Homo sapiens (Human)) testing of O=C1CC2(CCCCC2)Oc2ccc(-c3nc(-c4cccnc4)no3)cc21 < 75%

Report Emax from human sphingosine-1-phosphate receptor 1 (S1P1) (Homo sapiens (Human)) testing of COc1cncc(-c2nc(-c3ccc4c(c3)nnn4C(C)C)no2)c1 < 75%

Report Emax from human sphingosine-1-phosphate receptor 1 (S1P1) (Homo sapiens (Human)) testing of Cc1ccccc1-c1c[nH]c(-c2ccc3c(c2)nnn3C(C)C)c1 < 75%
